Ref: ChEMBL document CHEMBL1133814

Overview of recorded IC50 for various compounds
Target: Progesterone receptor (Homo sapiens)
Sequence (P06401 whole entry): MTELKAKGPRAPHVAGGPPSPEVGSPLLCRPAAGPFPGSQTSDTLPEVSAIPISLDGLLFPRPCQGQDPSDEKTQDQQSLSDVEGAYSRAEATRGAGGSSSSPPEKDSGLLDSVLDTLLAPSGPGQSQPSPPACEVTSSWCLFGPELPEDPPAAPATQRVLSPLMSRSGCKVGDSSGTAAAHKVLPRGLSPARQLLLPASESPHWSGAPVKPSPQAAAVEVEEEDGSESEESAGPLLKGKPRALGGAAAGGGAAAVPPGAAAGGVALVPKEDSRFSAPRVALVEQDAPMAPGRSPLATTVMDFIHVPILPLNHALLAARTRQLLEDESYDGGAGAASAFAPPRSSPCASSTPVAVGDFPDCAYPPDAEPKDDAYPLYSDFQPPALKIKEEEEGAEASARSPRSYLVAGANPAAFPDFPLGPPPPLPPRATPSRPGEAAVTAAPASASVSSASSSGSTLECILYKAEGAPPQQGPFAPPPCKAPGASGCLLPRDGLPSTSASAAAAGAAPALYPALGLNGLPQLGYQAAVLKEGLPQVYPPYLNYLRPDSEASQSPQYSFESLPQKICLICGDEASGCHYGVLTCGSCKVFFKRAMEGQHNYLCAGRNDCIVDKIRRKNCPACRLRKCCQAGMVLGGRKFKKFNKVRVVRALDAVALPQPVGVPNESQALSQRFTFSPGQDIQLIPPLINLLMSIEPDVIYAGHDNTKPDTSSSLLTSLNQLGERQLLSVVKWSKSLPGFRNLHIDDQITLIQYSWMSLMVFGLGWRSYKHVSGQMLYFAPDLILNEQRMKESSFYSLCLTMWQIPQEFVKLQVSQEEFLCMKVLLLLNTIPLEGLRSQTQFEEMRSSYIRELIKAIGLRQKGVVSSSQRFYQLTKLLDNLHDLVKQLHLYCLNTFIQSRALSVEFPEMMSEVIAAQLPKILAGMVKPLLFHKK
Assay: Inhibitory concentration against progesterone induced PRE-luciferase activity in CV-cells
Set-up: species or system Oryctolagus cuniculus
ENDPOINT_LABEL: IC50 (nM)

>>> measurement("CCn1c(=O)[nH]c2ccc(-c3cccc(Cl)c3)cc21")
106
>>> measurement("O=c1[nH]c2ccc(-c3cccc([N+](=O)[O-])c3)cc2n1Cc1ccccc1")
257
>>> measurement("Oc1nc2cc(-c3cccc(Cl)c3)ccc2n1Cc1ccccc1")
3060
>>> measurement("CC(C)n1c(=O)[nH]c2ccc(-c3cccc([N+](=O)[O-])c3)cc21")
136

###

Biological target: Progesterone receptor (Homo sapiens, UniProt P06401)
Assay: Inhibitory concentration against progesterone stimulated alkaline phosphatase activity in T47D human breast carcinoma cell line
Type: cell-based
pIC50: −log10 of the molar value.
pIC50 overview
ENDPOINT_LABEL: pIC50

>>> measurement("O=[N+]([O-])c1cccc(-c2ccc3[nH]c(=S)n(Cc4ccccc4)c3c2)c1")
8.00
>>> measurement("S=c1[nH]c2ccc(-c3cccc(Cl)c3)cc2n1Cc1ccccc1")
7.77
>>> measurement("O=c1[nH]c2ccc(-c3cccc(Cl)c3)cc2s1")
6.34
>>> measurement("O=c1[nH]c2ccc(-c3cccc(Cl)c3)cc2n1Cc1ccccc1")
6.95
>>> measurement("CC(C)n1c(=O)[nH]c2ccc(-c3cccc([N+](=O)[O-])c3)cc21")
7.14
>>> measurement("O=c1[nH]c2ccc(-c3cccc([N+](=O)[O-])c3)cc2n1Cc1ccccc1")
7.21
>>> measurement("O=c1[nH]c2ccc(-c3cccc([N+](=O)[O-])c3)cc2s1")
7.08
>>> measurement("Cn1c(=O)[nH]c2ccc(-c3cccc([N+](=O)[O-])c3)cc21")
6.00

###

Target: Progesterone receptor (Homo sapiens)
Assay: Inhibitory concentration against progesterone stimulated alkaline phosphatase activity in T47D human breast carcinoma cell line
Format: cell-based
Overview of reported IC50 across a group of compounds:
ENDPOINT_LABEL: IC50 (nM)

>>> measurement("Cn1c(=O)[nH]c2ccc(-c3cccc(Cl)c3)cc21")
1000
>>> measurement("CCn1c(=O)[nH]c2ccc(-c3cccc(Cl)c3)cc21")
29.2
>>> measurement("CC(C)n1c(=O)[nH]c2ccc(-c3cccc(Cl)c3)cc21")
113

###

pKi: −log10 of the molar value.
// endpoint pKi / system Progesterone receptor (Homo sapiens, UniProt P06401)
ENDPOINT_LABEL: pKi

>>> measurement("CC(C)n1c(=O)[nH]c2ccc(-c3cccc(Cl)c3)cc21")
6.28
>>> measurement("O=c1[nH]c2ccc(-c3cccc([N+](=O)[O-])c3)cc2n1Cc1ccccc1")
6.15
>>> measurement("Oc1nc2cc(-c3cccc(Cl)c3)ccc2n1Cc1ccccc1")
5.50
>>> measurement("CC(C)n1c(=O)[nH]c2ccc(-c3cccc([N+](=O)[O-])c3)cc21")
6.28
>>> measurement("O=c1[nH]c2ccc(-c3cccc([N+](=O)[O-])c3)cc2s1")
6.48

###

Target: Progesterone receptor (Homo sapiens)
Sequence (P06401 whole entry): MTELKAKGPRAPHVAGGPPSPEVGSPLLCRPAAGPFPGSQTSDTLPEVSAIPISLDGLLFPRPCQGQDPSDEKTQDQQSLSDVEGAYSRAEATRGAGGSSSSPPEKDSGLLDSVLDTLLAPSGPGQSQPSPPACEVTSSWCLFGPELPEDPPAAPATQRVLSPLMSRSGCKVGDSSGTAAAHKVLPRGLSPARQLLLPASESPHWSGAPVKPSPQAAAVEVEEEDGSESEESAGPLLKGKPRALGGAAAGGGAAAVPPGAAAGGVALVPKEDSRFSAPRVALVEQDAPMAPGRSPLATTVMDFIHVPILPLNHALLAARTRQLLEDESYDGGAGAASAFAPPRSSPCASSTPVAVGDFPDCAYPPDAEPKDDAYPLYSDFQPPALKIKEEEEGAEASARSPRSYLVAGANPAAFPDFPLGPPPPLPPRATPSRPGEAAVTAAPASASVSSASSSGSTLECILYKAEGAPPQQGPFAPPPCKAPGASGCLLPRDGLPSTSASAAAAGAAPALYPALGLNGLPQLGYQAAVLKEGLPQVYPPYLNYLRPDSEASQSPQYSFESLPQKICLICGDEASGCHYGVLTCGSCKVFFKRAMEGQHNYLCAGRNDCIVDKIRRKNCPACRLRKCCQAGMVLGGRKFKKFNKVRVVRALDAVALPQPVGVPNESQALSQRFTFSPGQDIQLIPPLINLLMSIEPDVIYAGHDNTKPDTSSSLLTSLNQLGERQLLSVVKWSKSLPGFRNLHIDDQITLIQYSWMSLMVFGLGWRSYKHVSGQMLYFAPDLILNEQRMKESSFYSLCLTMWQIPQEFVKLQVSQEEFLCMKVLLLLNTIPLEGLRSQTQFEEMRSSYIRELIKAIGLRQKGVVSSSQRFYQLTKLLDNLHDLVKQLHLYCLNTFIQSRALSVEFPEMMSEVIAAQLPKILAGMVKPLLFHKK
Experiment: Inhibitory concentration against progesterone induced PRE-luciferase activity in CV-cells
Set-up: species or system Oryctolagus cuniculus
pIC50: −log10 of the molar value.
List of pIC50 values.
ENDPOINT_LABEL: pIC50

>>> measurement("O=c1[nH]c2ccc(-c3cccc(Cl)c3)cc2s1")
6.58
>>> measurement("CC(C)n1c(=O)[nH]c2ccc(-c3cccc(Cl)c3)cc21")
6.39
>>> measurement("O=c1[nH]c2ccc(-c3cccc([N+](=O)[O-])c3)cc2s1")
6.49
